This listing pairs molecules with measured relative viability.
System: HCC-78
Experiment: relative viability (nuclei count vs DMSO), 5 days (fraction); higher = more cells survive
Details: first compound 0.1 µM
Give the value as a plain number.

NC(=O)Nc1cc(-c2cccc(F)c2)sc1C(=O)N[C@H]1CCCNC1 [AZD7762] + CC(=O)c1c(C)c2cnc(Nc3ccc(N4CCNCC4)cn3)nc2n(C2CCCC2)c1=O [Palbociclib] (partner 0.5 µM)
0.444
NC(=O)Nc1cc(-c2cccc(F)c2)sc1C(=O)N[C@H]1CCCNC1 [AZD7762] + C[C@]1(O)C[C@@H](c2nc(-c3ccc4ccc(-c5ccccc5)nc4c3)c3c(N)nccn32)C1 [Linsitinib] (partner 1 µM)
0.581

Problem: Please look up its relative viability: NC(=O)Nc1cc(-c2cccc(F)c2)sc1C(=O)N[C@H]1CCCNC1 [AZD7762] + C[C@@H](Oc1cc(-c2cnn(C3CCNCC3)c2)cnc1N)c1c(Cl)ccc(F)c1Cl [Crizotinib] (partner 1 µM)
Result: 0.317

====

System: LOU-NH91
Assay: relative viability (nuclei count vs DMSO), 5 days (fraction); higher = more cells survive
Details: first compound 0.1581 µM
Exam item: assign class 1 to entries whose relative viability is below 0.7 and class 0 to entries at or above 0.7. Note that a value of exactly 0.7 receives class 0.

Field: example entries. Status: answers known.
CC1(C)CCC(c2ccc(Cl)cc2)=C(CN2CCN(c3ccc(C(=O)NS(=O)(=O)c4ccc(N[C@H](CCN5CCOCC5)CSc5ccccc5)c(S(=O)(=O)C(F)(F)F)c4)cc3)CC2)C1 [Navitoclax] + Cc1nc(Nc2ncc(C(=O)Nc3c(C)cccc3Cl)s2)cc(N2CCN(CCO)CC2)n1 [Dasatinib] (partner 0.075 µM)
class 1
CC1(C)CCC(c2ccc(Cl)cc2)=C(CN2CCN(c3ccc(C(=O)NS(=O)(=O)c4ccc(N[C@H](CCN5CCOCC5)CSc5ccccc5)c(S(=O)(=O)C(F)(F)F)c4)cc3)CC2)C1 [Navitoclax] + C[C@]1(O)C[C@@H](c2nc(-c3ccc4ccc(-c5ccccc5)nc4c3)c3c(N)nccn32)C1 [Linsitinib] (partner 1 µM)
class 0
CC1(C)CCC(c2ccc(Cl)cc2)=C(CN2CCN(c3ccc(C(=O)NS(=O)(=O)c4ccc(N[C@H](CCN5CCOCC5)CSc5ccccc5)c(S(=O)(=O)C(F)(F)F)c4)cc3)CC2)C1 [Navitoclax] + Cc1nc(NC(=O)N2CCC[C@H]2C(N)=O)sc1-c1ccnc(C(C)(C)C(F)(F)F)c1 [Alpelisib] (partner 2 µM)
class 0

We next turn to a different compound, shown below.
Problem: Hi there! Is relative viability for CC1(C)CCC(c2ccc(Cl)cc2)=C(CN2CCN(c3ccc(C(=O)NS(=O)(=O)c4ccc(N[C@H](CCN5CCOCC5)CSc5ccccc5)c(S(=O)(=O)C(F)(F)F)c4)cc3)CC2)C1 [Navitoclax] + CCNC(=O)c1noc(-c2cc(C(C)C)c(O)cc2O)c1-c1ccc(CN2CCOCC2)cc1 [Luminespib] (partner 0.01 µM) below 0.7, do you know?
Result: class 1

====

System: NCI-H1703
Assay: relative viability (nuclei count vs DMSO), 5 days (fraction); higher = more cells survive
Conditions: first compound 0.253 µM
endpointName: relative viability
Hey, just send me the number, nothing else.

Oc1nc(-c2ccc(C(F)(F)F)cc2)nc2c1CSCC2 [XAV939] + C[C@]1(O)C[C@@H](c2nc(-c3ccc4ccc(-c5ccccc5)nc4c3)c3c(N)nccn32)C1 [Linsitinib] (partner 1 µM)
1.02

Problem: Please report the recorded relative viability for C=C1C(=O)O[C@@H](CCCCCCCC)[C@@H]1C(=O)O [C-75] + COc1cc2c(Oc3ccc(NC(=O)C4(C(=O)Nc5ccc(F)cc5)CC4)cc3F)ccnc2cc1OCCCN1CCOCC1 [Foretinib] (partner 0.25 µM) .
Result: 0.334

Problem: What relative viability value was documented for this compound, Oc1nc(-c2ccc(C(F)(F)F)cc2)nc2c1CSCC2 [XAV939] + C[C@@H](Oc1cc(-c2cnn(C3CCNCC3)c2)cnc1N)c1c(Cl)ccc(F)c1Cl [Crizotinib] (partner 1 µM) ?
Result: 0.621

Problem: Query: relative viability; subject: Oc1nc(-c2ccc(C(F)(F)F)cc2)nc2c1CSCC2 [XAV939] + CS(=O)(=O)CCNCc1ccc(-c2ccc3ncnc(Nc4ccc(OCc5cccc(F)c5)c(Cl)c4)c3c2)o1 [Lapatinib] (partner 2 µM)
Result: 1.08

====

Test system: EPLC-272H
Experiment: relative viability (nuclei count vs DMSO), 5 days (fraction); higher = more cells survive
Conditions: first compound 0.8 µM
endpointName: relative viability
// print number alone

Example cases with answers are listed next.
C=C1C(=O)O[C@@H](CCCCCCCC)[C@@H]1C(=O)O [C-75] + C[C@]1(O)C[C@@H](c2nc(-c3ccc4ccc(-c5ccccc5)nc4c3)c3c(N)nccn32)C1 [Linsitinib] (partner 1 µM)
1.07
Oc1nc(-c2ccc(C(F)(F)F)cc2)nc2c1CSCC2 [XAV939] + CC(=O)c1c(C)c2cnc(Nc3ccc(N4CCNCC4)cn3)nc2n(C2CCCC2)c1=O [Palbociclib] (partner 0.5 µM)
0.305
C=C1C(=O)O[C@@H](CCCCCCCC)[C@@H]1C(=O)O [C-75] + Nc1nc2[nH]cc(CCc3ccc(C(=O)N[C@@H](CCC(=O)O)C(=O)O)cc3)c2c(=O)[nH]1 [Pemetrexed] (partner 0.2 µM)
0.329
C=C1C(=O)O[C@@H](CCCCCCCC)[C@@H]1C(=O)O [C-75] + COc1cccc2cc(-c3nc([C@H]4CC[C@H](C(=O)O)CC4)n4ncnc(N)c34)[nH]c12 [OSI-027] (partner 0.5 µM)
0.278
C=C1C(=O)O[C@@H](CCCCCCCC)[C@@H]1C(=O)O [C-75] + Cc1nc(NC(=O)N2CCC[C@H]2C(N)=O)sc1-c1ccnc(C(C)(C)C(F)(F)F)c1 [Alpelisib] (partner 2 µM)
0.873
Oc1nc(-c2ccc(C(F)(F)F)cc2)nc2c1CSCC2 [XAV939] + Cc1nc(NC(=O)N2CCC[C@H]2C(N)=O)sc1-c1ccnc(C(C)(C)C(F)(F)F)c1 [Alpelisib] (partner 2 µM)
0.908
Oc1nc(-c2ccc(C(F)(F)F)cc2)nc2c1CSCC2 [XAV939] + CC(=O)Nc1cccc(-n2c(=O)n(C3CC3)c(=O)c3c(Nc4ccc(I)cc4F)n(C)c(=O)c(C)c32)c1 [Trametinib] (partner 0.02 µM)
0.274

Lab note: next compound to report on.
Problem: Recorded relative viability of C=C1C(=O)O[C@@H](CCCCCCCC)[C@@H]1C(=O)O [C-75] + O=C(CCCCCCC(=O)Nc1ccccc1)NO [Vorinostat] (partner 1 µM) , please.
Result: 0.655

====

Tested on: NCI-H1793
Assay: relative viability (nuclei count vs DMSO), 5 days (fraction); higher = more cells survive
Conditions: first compound 1 µM
Recorded relative viability values for a group of compounds are listed next.
Write no unit; give the number alone.

NC(=O)Nc1cc(-c2cccc(F)c2)sc1C(=O)N[C@H]1CCCNC1 [AZD7762] + Nc1ncn([C@H]2C[C@H](O)[C@@H](CO)O2)c(=O)n1 [Decitabine] (partner 2 µM)
0.39
NC(=O)Nc1cc(-c2cccc(F)c2)sc1C(=O)N[C@H]1CCCNC1 [AZD7762] + COc1cccc2cc(-c3nc([C@H]4CC[C@H](C(=O)O)CC4)n4ncnc(N)c34)[nH]c12 [OSI-027] (partner 0.5 µM)
0.25

Continue with the compound presented below.
Problem: Could you share what relative viability was measured for NC(=O)Nc1cc(-c2cccc(F)c2)sc1C(=O)N[C@H]1CCCNC1 [AZD7762] + O=C(CCCCCCC(=O)Nc1ccccc1)NO [Vorinostat] (partner 1 µM) , tested on NCI-H1793?
Result: 0.284

====

Recorded relative viability values for a group of compounds are listed next.
Tested on: NCI-H3122
Test: relative viability (nuclei count vs DMSO), 5 days (fraction); higher = more cells survive
Settings: first compound 0.3162 µM
The answer should be written as a number, with no unit following it.

# example entries with known answers
NC(=O)Nc1cc(-c2cccc(F)c2)sc1C(=O)N[C@H]1CCCNC1 [AZD7762] + Cc1cc(Nc2cc(N3CCN(C)CC3)nc(Sc3ccc(NC(=O)C4CC4)cc3)n2)n[nH]1 [Tozasertib] (partner 0.1 µM)
0.278
NC(=O)Nc1cc(-c2cccc(F)c2)sc1C(=O)N[C@H]1CCCNC1 [AZD7762] + CC(C)C[C@H](NC(=O)[C@H](Cc1ccccc1)NC(=O)c1cnccn1)B(O)O [Bortezomib] (partner 0.002 µM)
0.966
NC(=O)Nc1cc(-c2cccc(F)c2)sc1C(=O)N[C@H]1CCCNC1 [AZD7762] + CC(=O)c1c(C)c2cnc(Nc3ccc(N4CCNCC4)cn3)nc2n(C2CCCC2)c1=O [Palbociclib] (partner 0.5 µM)
0.199

Problem: Need relative viability of NC(=O)Nc1cc(-c2cccc(F)c2)sc1C(=O)N[C@H]1CCCNC1 [AZD7762] + COc1cc2c(Oc3ccc(NC(=O)C4(C(=O)Nc5ccc(F)cc5)CC4)cc3F)ccnc2cc1OCCCN1CCOCC1 [Foretinib] (partner 0.25 µM) , thanks.
Result: 0.996

Problem: Report relative viability for NC(=O)Nc1cc(-c2cccc(F)c2)sc1C(=O)N[C@H]1CCCNC1 [AZD7762] + CC1(C)CCC(c2ccc(Cl)cc2)=C(CN2CCN(c3ccc(C(=O)NS(=O)(=O)c4ccc(N[C@H](CCN5CCOCC5)CSc5ccccc5)c(S(=O)(=O)C(F)(F)F)c4)cc3)CC2)C1 [Navitoclax] (partner 0.5 µM) please.
Result: 0.995
